Every entry's value here was drawn from PubChem BioAssay AID588807.

# TARGET_SYSTEM: UniProt:Q9QUR6
# Sequence (Q9QUR6 whole entry, looked up): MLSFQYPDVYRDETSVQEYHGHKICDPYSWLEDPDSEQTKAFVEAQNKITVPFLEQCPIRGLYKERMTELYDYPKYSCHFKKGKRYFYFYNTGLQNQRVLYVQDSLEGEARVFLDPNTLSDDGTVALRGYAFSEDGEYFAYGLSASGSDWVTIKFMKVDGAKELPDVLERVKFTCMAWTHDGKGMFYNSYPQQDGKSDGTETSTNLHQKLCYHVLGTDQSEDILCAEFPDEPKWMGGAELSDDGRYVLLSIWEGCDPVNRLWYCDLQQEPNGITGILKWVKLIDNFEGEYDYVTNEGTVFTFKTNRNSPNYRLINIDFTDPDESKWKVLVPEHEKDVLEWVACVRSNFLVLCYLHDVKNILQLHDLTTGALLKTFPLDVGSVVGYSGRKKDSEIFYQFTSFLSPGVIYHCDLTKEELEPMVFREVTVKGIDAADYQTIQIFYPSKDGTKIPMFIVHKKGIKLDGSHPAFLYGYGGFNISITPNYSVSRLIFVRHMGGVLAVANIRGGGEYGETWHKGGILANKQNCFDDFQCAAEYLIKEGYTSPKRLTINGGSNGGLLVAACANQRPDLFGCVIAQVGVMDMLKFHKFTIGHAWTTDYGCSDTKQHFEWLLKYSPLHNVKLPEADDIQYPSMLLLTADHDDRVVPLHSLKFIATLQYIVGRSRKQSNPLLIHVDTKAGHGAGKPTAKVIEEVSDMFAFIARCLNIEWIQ
# ASSAY_NOTES: competitive ABPP of Abhd10 versus anti-targets – biochemical, fluorescence, gel-based, mouse proteome, selectivity assay for PME-1 inhibitor project, late-stage follow-up (AID 588807)
# CONDITION_INFO: PREP, anti-target, inhibition, at 0.1 µM, stronger effect = higher value
ASSAY_READOUT: inhibition
Remember to quote the unit after the number.

compound `CC[C@@]1(c2cccc(C)c2)C(=O)N(C(=O)OC)N1C(=O)OC(C)C` , inhibition observed: 20%

response.value for `C=CCOC(=O)N1N(C(=O)OC)C(=O)[C@@]1(CC)c1ccccc1` (field: inhibition) = 10%

The reported value for `CCOC(=O)N1C(=O)[C@@](CC)(c2cccc(C)c2)N1C(=O)OCC` in terms of inhibition is 20%

compound `CC[C@@]1(c2ccccc2C)C(=O)N(C(=O)OC)N1C(=O)OC` , inhibition observed: 20%

---

# TARGET_SYSTEM: UniProt:Q6PE15
# ASSAY_NOTES: competitive ABPP of Abhd10 versus anti-targets – biochemical, fluorescence, gel-based, mouse proteome, selectivity assay for PME-1 inhibitor project, late-stage follow-up (AID 588807)
# CONDITION_INFO: inhibition, at 1 µM, stronger effect = higher value
Give measured inhibition for each item. Keep answers brief.
Answer format: numeric, % implied, no suffix.

Just so you know, measured inhibition for `CC[C@]1(c2cccc(C)c2)C(=O)N(C(=O)OC)N1C(=O)OC` came out at 20

`CC[C@@]1(c2ccccc2)C(=O)N(C(=O)OC(C)C)N1C(=O)OC(C)C` has a reported inhibition of 90

Reported inhibition for `CC[C@@]1(c2ccc(OC)cc2)C(=O)N(C(=O)OC)N1C(=O)OC` was 70

response.value for `C=CCOC(=O)N1N(C(=O)OC)C(=O)[C@@]1(CC)c1cccc(C)c1` (field: inhibition) = 75

The recorded inhibition for `CC[C@@]1(c2ccc(C)cc2)C(=O)N(C(=O)OC(C)C)N1C(=O)OC(C)C` is 90

Entry `C=CCOC(=O)N1C(=O)[C@@](CC)(c2ccccc2)N1C(=O)OC` ; inhibition = 70

// `CC[C@@]1(c2cccc(Cl)c2)C(=O)N(C(=O)OC(C)C)N1C(=O)OC(C)C` : inhibition value = 100

Measured inhibition of `CCOC(=O)N1C(=O)[C@@](CC)(c2cccc(C)c2)N1C(=O)OCC` : 100

What the record says about `CC[C@@]1(c2cccc(C)c2)C(=O)N(C(=O)OC(C)C)N1C(=O)OC(C)C` : inhibition is 100

The measured inhibition associated with `CC[C@@]1(c2cccc(C)c2)C(=O)N(C(=O)OC(C)C)N1C(=O)OC` reads 25

---

Give inhibition for every item shown.
# TARGET_SYSTEM: Palmitoyl-protein thioesterase ABHD10, mitochondrial (Mus musculus) (UniProt Q6PE15)
# Sequence (Q6PE15 whole entry, looked up): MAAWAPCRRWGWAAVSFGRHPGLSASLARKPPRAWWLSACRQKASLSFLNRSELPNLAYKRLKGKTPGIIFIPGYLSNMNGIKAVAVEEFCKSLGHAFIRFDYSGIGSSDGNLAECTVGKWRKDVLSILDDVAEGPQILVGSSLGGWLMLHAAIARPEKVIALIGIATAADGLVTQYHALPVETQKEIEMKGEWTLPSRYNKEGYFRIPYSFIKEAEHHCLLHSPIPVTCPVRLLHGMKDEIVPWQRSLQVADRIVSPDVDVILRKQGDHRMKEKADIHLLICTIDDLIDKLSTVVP
# ASSAY_NOTES: competitive ABPP of Abhd10 versus anti-targets – biochemical, fluorescence, gel-based, mouse proteome, selectivity assay for PME-1 inhibitor project, late-stage follow-up (AID 588807)
# CONDITION_INFO: inhibition, at 0.1 µM, stronger effect = higher value
Dear colleague, please send the value followed by its unit.

Measured inhibition for this entry `CC[C@@]1(c2cccc(Cl)c2)C(=O)N(C(=O)OC(C)C)N1C(=O)OC(C)C` on Palmitoyl-protein thioesterase ABHD10, mitochondrial (Mus musculus) (UniProt Q6PE15): 40%

Record `CC[C@@]1(c2cccc(F)c2)C(=O)N(C(=O)OC(C)C)N1C(=O)OC(C)C` has Palmitoyl-protein thioesterase ABHD10, mitochondrial (Mus musculus) (UniProt Q6PE15) inhibition equal to 40%

`CC[C@@]1(c2ccc(Cl)cc2)C(=O)N(C(=O)OC)N1C(=O)OC` on Palmitoyl-protein thioesterase ABHD10, mitochondrial (Mus musculus) (UniProt Q6PE15) gives inhibition = 60%

Readout inhibition for `C=CCOC(=O)N1C(=O)[C@@](CC)(c2ccccc2)N1C(=O)OC` , test system Palmitoyl-protein thioesterase ABHD10, mitochondrial (Mus musculus) (UniProt Q6PE15), was 10%

Tested on Palmitoyl-protein thioesterase ABHD10, mitochondrial (Mus musculus) (UniProt Q6PE15), the item `C=CCOC(=O)N1C(=O)[C@@](CC)(c2cccc(C)c2)N1C(=O)OC` showed inhibition equal to 10%

Lab entry: Palmitoyl-protein thioesterase ABHD10, mitochondrial (Mus musculus) (UniProt Q6PE15) assay, compound `CC[C@@]1(c2cccc(F)c2)C(=O)N(C(=O)OC)N1C(=O)OC` , inhibition = 60%

Query `C=CCOC(=O)N1N(C(=O)OC)C(=O)[C@@]1(CC)c1cccc(C)c1` on Palmitoyl-protein thioesterase ABHD10, mitochondrial (Mus musculus) (UniProt Q6PE15); inhibition returned: 10%

Reading of inhibition for `C=CCOC(=O)N1C(=O)[C@@](CC)(c2ccccc2)N1C(=O)OCC=C` with Palmitoyl-protein thioesterase ABHD10, mitochondrial (Mus musculus) (UniProt Q6PE15): 30%

With Palmitoyl-protein thioesterase ABHD10, mitochondrial (Mus musculus) (UniProt Q6PE15) as the test system, `CC[C@@]1(c2cccc(C)c2)C(=O)N(C(=O)OC(C)C)N1C(=O)OC` showed inhibition of 10%

The observed inhibition for `CCOC(=O)N1C(=O)[C@@](C)(c2cccc(C)c2)N1C(=O)OCC` when tested with Palmitoyl-protein thioesterase ABHD10, mitochondrial (Mus musculus) (UniProt Q6PE15) stands at 60%

// assay Palmitoyl-protein thioesterase ABHD10, mitochondrial (Mus musculus) (UniProt Q6PE15), entry `CC[C@@]1(c2cccc(Cl)c2)C(=O)N(C(=O)OC)N1C(=O)OC` , inhibition value = 45%
